- System: Enterococcus faecalis
- experiment_description: Antimicrobial activity against vancomycin B-resistant Enterococcus faecalis ATCC 51299
- Type: functional
experimental_readout: MIC (µg/mL)
Answers are plain numbers, in µg/mL.

Sample "CN[C@H](CC(C)C)C(=O)N[C@H]1C(=O)N[C@@H](CC(N)=O)C(=O)N[C@H]2C(=O)N[C@H]3C(=O)N[C@H](C(=O)N[C@@H](C(=O)O)c4cc(OC)cc(O)c4-c4cc3ccc4OC)[C@H](O)c3ccc(c(Cl)c3)Oc3cc2cc(c3O)Oc2ccc(cc2Cl)[C@H]1O" — what was its MIC?
120

----------
Exercise: for every item that follows, state its recorded MIC.
- Tested on: Enterococcus faecalis
- experiment_description: Antimicrobial activity against vancomycin B-resistant Enterococcus faecalis ATCC 51299
- Format: functional
Answers are plain numbers, in µg/mL.

Below, 5 compounds whose answers are already recorded.
INSERT INTO assay_data (compound_structure, assayed_target, reported_value) VALUES
  ('CN[C@H](CC(C)C)C(=O)N[C@H]1C(=O)N[C@@H](CC(N)=O)C(=O)N[C@H]2C(=O)N[C@H]3C(=O)N[C@H](C(=O)N[C@@H](C(=O)O)c4cc(O)cc(O)c4-c4cc3ccc4O)[C@H](O)c3ccc(c(Cl)c3)Oc3cc2cc(c3OC)Oc2ccc(cc2Cl)[C@H]1O', 'Enterococcus faecalis', 40),
  ('CN[C@H](CC(C)C)C(=O)N[C@H]1C(=O)N[C@@H](CC(N)=O)C(=O)N[C@H]2C(=O)N[C@H]3C(=O)N[C@H](C(=O)N[C@@H](C(=O)OC)c4cc(OC)cc(OC)c4-c4cc3ccc4OC)[C@H](O)c3ccc(c(Cl)c3)Oc3cc2cc(c3OC)Oc2ccc(cc2Cl)[C@H]1O', 'Enterococcus faecalis', 1.25),
  ('CN[C@H](CC(C)C)C(=O)N[C@H]1C(=O)N[C@@H](CC(N)=O)C(=O)N[C@H]2C(=O)N[C@H]3C(=O)N[C@H](C(=O)N[C@H](C(=O)O)c4cc(O)cc(O)c4-c4cc3ccc4O)[C@H](O)c3ccc(c(Cl)c3)Oc3cc2cc(c3O[C@@H]2O[C@H](CO)[C@@H](O)[C@H](O)[C@H]2O[C@H]2C[C@](C)(N)[C@H](O)[C@H](C)O2)Oc2ccc(cc2Cl)[C@H]1O', 'Enterococcus faecalis', 120),
  ('CN[C@H](CC(C)C)C(=O)N[C@H]1C(=O)N[C@@H](CC(N)=O)C(=O)N[C@H]2C(=O)N[C@H]3C(=O)N[C@H](C(=O)N[C@@H](C(=O)O)c4cc(OC)cc(OC)c4-c4cc3ccc4O)[C@H](O)c3ccc(c(Cl)c3)Oc3cc2cc(c3O)Oc2ccc(cc2Cl)[C@H]1O', 'Enterococcus faecalis', 120),
  ('CN[C@@H](CC(C)C)C(=O)N[C@H]1C(=O)N[C@@H](CC(N)=O)C(=O)N[C@H]2C(=O)N[C@H]3C(=O)N[C@H](C(=O)N[C@@H](C(=O)O)c4cc(O)cc(O)c4-c4cc3ccc4O)[C@H](O)c3ccc(c(Cl)c3)Oc3cc2cc(c3O[C@@H]2O[C@H](CO)[C@@H](O)[C@H](O)[C@H]2O[C@H]2C[C@](C)(NCc3ccc(-c4ccc(Cl)cc4)cc3)[C@H](O)[C@H](C)O2)Oc2ccc(cc2Cl)[C@H]1O', 'Enterococcus faecalis', 0.03);

// batch mode: one MIC value per listed entry
1. CN[C@H](CC(C)C)C(=O)N[C@H]1C(=O)N[C@@H](CC(N)=O)C(=O)N[C@H]2C(=O)N[C@H]3C(=O)N[C@H](C(=O)N[C@@H](C(=O)O)c4cc(OC)cc(OC)c4-c4cc3ccc4OC)[C@H](O)c3ccc(c(Cl)c3)Oc3cc2cc(c3OC)Oc2ccc(cc2Cl)[C@H]1O
2. CN[C@H](CC(C)C)C(=O)N[C@H]1C(=O)N[C@@H](CC(N)=O)C(=O)N[C@H]2C(=O)N[C@H]3C(=O)N[C@H](C(=O)N[C@@H](C(=O)O)c4cc(OC)cc(OC)c4-c4cc3ccc4OC)[C@H](O)c3ccc(c(Cl)c3)Oc3cc2cc(c3O)Oc2ccc(cc2Cl)[C@H]1O

1. 2.5
2. 10
